- Tested on: Pseudomonas aeruginosa
- test.summary: Tested in vitro for inhibitory activity against gram negative bacteria Pseudomonas aeruginosa ATCC 9027 strain
- Format: functional
measured.attribute: MIC (µg/mL)

1) Nc1cc2c(=O)c(C(=O)O)cn(C3CC3)c2cc1NC1CC1 :: 128
2) CC1CN(c2cc3c(cc2N)c(=O)c(C(=O)O)cn3C2CC2)CCN1 (stereo not given) :: 2
3) O=C(O)c1cn(C2CC2)c2cc(N3CCNCC3)c(F)cc2c1=O :: 0.06
4) CN1CCN(c2nc3c(c(N)c2N)c(=O)c(C(=O)O)cn3C2CC2)CC1 :: 8
5) C[C@@H]1CN(c2cc3c(cc2N)c(=O)c(C(=O)O)cn3C2CC2)C[C@H](C)N1 :: 2
6) Nc1cc2c(=O)c(C(=O)O)cn(C3CC3)c2cc1N1CCCC1 :: 128
7) Nc1cc2c(=O)c(C(=O)O)cn(-c3ccc(F)cc3)c2cc1N1CCSCC1 :: 128
8) Nc1cc2c(=O)c(C(=O)O)cn(C3CC3)c2cc1N1CCNCC1 :: 2
9) CN1CCN(c2cc3c(cc2N)c(=O)c(C(=O)O)cn3-c2ccc(F)cc2)CC1 :: 8
10) CC(=O)NC1CCN(c2cc3c(cc2N)c(=O)c(C(=O)O)cn3C2CC2)C1 (stereo not given) :: 128

###

- Test system: Staphylococcus epidermidis
- test.summary: Tested in vitro for inhibitory activity against gram positive bacteria Staphylococcus epidermidis CPHL A2 strain
- Assay type: functional
measured.attribute: MIC (mg/L)

1. CN1CCN(c2c(N)c(N)c3c(=O)c(C(=O)O)cn(C4CC4)c3c2F)CC1 :: 4
2. CN1CCN(c2cc3c(cc2N)c(=O)c(C(=O)O)cn3C(C)(C)C)CC1 :: 2
3. CN1CCN(c2cc3c(c(N)c2N)c(=O)c(C(=O)O)cn3C2CC2)CC1 :: 128
4. CC(=O)NC1CCN(c2cc3c(cc2N)c(=O)c(C(=O)O)cn3C2CC2)C1 (stereo not given) :: 128
5. Nc1cc2c(=O)c(C(=O)O)cn(-c3ccc(F)cc3)c2cc1N1CCSCC1 :: 4

###

- Test system: Providencia stuartii
- test.summary: Tested in vitro for inhibitory activity against gram negative bacteria Providencia stuartii CNUR 5 strain
- Type: functional
measured.attribute: MIC

1) CN1CCN(c2c(F)c(N)c3c(=O)c(C(=O)O)cn(C4CC4)c3c2F)CC1 :: 0.06 µg/mL
2) Nc1cc2c(=O)c(C(=O)O)cn(C3CC3)c2cc1N1CCC(O)CC1 :: 8 µg/mL
3) CN1CCN(c2nc3c(cc2N)c(=O)c(C(=O)O)cn3C2CC2)CC1 :: 2 µg/mL
4) Nc1cc2c(=O)c(C(=O)O)cn(C3CC3)c2cc1N1CCC(N)C1 (stereo unspecified) :: 128 µg/mL
5) Nc1cc2c(=O)c(C(=O)O)cn(C3CC3)c2cc1N1CCSCC1 :: 1 µg/mL
6) NCCSc1cc2c(cc1N)c(=O)c(C(=O)O)cn2C1CC1 :: 128 µg/mL
7) NCCN1CCN(c2cc3c(cc2N)c(=O)c(C(=O)O)cn3C2CC2)CC1 :: 128 µg/mL
8) CN1CCN(c2cc3c(cc2N)c(=O)c(C(=O)O)cn3-c2ccc(F)cc2)CC1 :: 4 µg/mL
9) CC(=O)NC1CCN(c2cc3c(cc2N)c(=O)c(C(=O)O)cn3C2CC2)C1 (stereo unspecified) :: 128 µg/mL
10) C[C@@H]1CN(c2cc3c(cc2N)c(=O)c(C(=O)O)cn3C2CC2)C[C@H](C)N1 :: 4 µg/mL
11) CN1CCN(c2c(N)c(N)c3c(=O)c(C(=O)O)cn(C4CC4)c3c2F)CC1 :: 2 µg/mL

Measured values drawn from ChEMBL document CHEMBL1128274 for this set.
